Where do the numbers come from? From patent US20040180902A1.

The entries below are paired with their reported melting point.

Consider C[C@H](NC(=O)c1c(CN2CCN(CCOCCO)CC2)c(-c2ccccc2)nc2ccc(F)cc12)C1CCCCC1 . Its measured melting point is 142 to 144 °C

For reference, reported melting point for C[C@H](NC(=O)c1c(CN2CCNC(=O)C2)c(-c2ccccc2)nc2cc(F)c(F)cc12)C1CCCCC1 stands at 185 to 190 °C

For C[C@H](NC(=O)c1c(CN2CCN(C[C@H](O)CO)CC2)c(-c2ccccc2)nc2ccccc12)C1CCCCC1 the compound record lists melting point as 124 to 126 °C

Documented melting point of C[C@H](NC(=O)c1c(CN2CCN(C[C@@H](O)CO)CC2)c(-c2ccccc2)nc2ccccc12)C1CCCCC1 : 126 to 128 °C

The recorded melting point for C[C@H](NC(=O)c1c(CN2CCN(CCCO)C(=O)C2)c(-c2ccccc2)nc2ccccc12)C1CCCCC1 is 120 to 122 °C

Entry C[C@H](NC(=O)c1c(CN2CCN(C[C@H](O)CO)C(=O)C2)c(-c2cccs2)nc2ccccc12)C1CCCCC1 — recorded melting point = 115 to 117 °C

Lab note: C[C@H](NC(=O)c1c(CN2CCN(CCCO)C(=O)C2)c(-c2cccs2)nc2ccccc12)C1CCCCC1 gave melting point of 117 to 119 °C
